The compounds listed here are annotated with their β Azide1 (affinity improvement factor).
target: PHL (Photorhabdus asymbiotica); assay: Hemagglutination inhibition assay with PHL (papain-treated human RBCs O); type: cell-based; conditions: hemagglutination; basic unit azide 1
Sequence (C7BLE4 entry or part of it): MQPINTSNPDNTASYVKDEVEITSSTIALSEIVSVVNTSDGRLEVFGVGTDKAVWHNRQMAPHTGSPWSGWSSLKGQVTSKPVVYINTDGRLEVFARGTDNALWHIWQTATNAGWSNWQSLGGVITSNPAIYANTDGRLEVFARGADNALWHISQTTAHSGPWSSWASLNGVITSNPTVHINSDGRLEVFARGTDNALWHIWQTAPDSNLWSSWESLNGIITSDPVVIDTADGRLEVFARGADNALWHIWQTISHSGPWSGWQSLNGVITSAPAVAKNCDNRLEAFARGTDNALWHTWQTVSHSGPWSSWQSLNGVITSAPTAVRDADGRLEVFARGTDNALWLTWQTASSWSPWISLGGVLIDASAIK
Lab note: record the figure alone, no unit after it.

Examples with their reported β Azide1 (affinity improvement factor) follow.
compound=C[C@@H]1O[C@@H](CCn2cc(COCC(COCc3cn(CC[C@@H]4O[C@@H](C)[C@@H](O)[C@@H](O)[C@@H]4O)nn3)(COCc3cn(CC[C@@H]4O[C@@H](C)[C@@H](O)[C@@H](O)[C@@H]4O)nn3)COCC(COCc3cn(CC[C@@H]4O[C@@H](C)[C@@H](O)[C@@H](O)[C@@H]4O)nn3)(COCc3cn(CC[C@@H]4O[C@@H](C)[C@@H](O)[C@@H](O)[C@@H]4O)nn3)COCc3cn(CC[C@@H]4O[C@@H](C)[C@@H](O)[C@@H](O)[C@@H]4O)nn3)nn2)[C@@H](O)[C@H](O)[C@@H]1O observed=1.3
compound=C[C@@H]1O[C@@H](CCn2cc(COCC(COCc3cn(CC[C@@H]4O[C@@H](C)[C@@H](O)[C@@H](O)[C@@H]4O)nn3)(COCc3cn(CC[C@@H]4O[C@@H](C)[C@@H](O)[C@@H](O)[C@@H]4O)nn3)COCc3cn(CC[C@@H]4O[C@@H](C)[C@@H](O)[C@@H](O)[C@@H]4O)nn3)nn2)[C@@H](O)[C@H](O)[C@@H]1O observed=1
compound=C[C@@H]1O[C@@H](CCn2cc(COc3c4cccc3Cc3cccc(c3OCc3cn(CC[C@@H]5O[C@@H](C)[C@@H](O)[C@@H](O)[C@@H]5O)nn3)Cc3cccc(c3OCc3cn(CC[C@@H]5O[C@@H](C)[C@@H](O)[C@@H](O)[C@@H]5O)nn3)Cc3cccc(c3OCc3cn(CC[C@@H]5O[C@@H](C)[C@@H](O)[C@@H](O)[C@@H]5O)nn3)C4)nn2)[C@@H](O)[C@H](O)[C@@H]1O observed=0.5

Tell us which β Azide1 (affinity improvement factor) value is on record for C[C@@H]1O[C@@H](CCn2cc(COc3c4cc(C(C)(C)C)cc3Cc3cc(C(C)(C)C)cc(c3OCc3cn(CC[C@@H]5O[C@@H](C)[C@@H](O)[C@@H](O)[C@@H]5O)nn3)Cc3cc(C(C)(C)C)cc(c3OCc3cn(CC[C@@H]5O[C@@H](C)[C@@H](O)[C@@H](O)[C@@H]5O)nn3)Cc3cc(C(C)(C)C)cc(c3OCc3cn(CC[C@@H]5O[C@@H](C)[C@@H](O)[C@@H](O)[C@@H]5O)nn3)C4)nn2)[C@@H](O)[C@H](O)[C@@H]1O
0.5

Supply β Azide1 (affinity improvement factor) value. Item: C[C@@H]1O[C@@H](CCN=[N+]=[N-])[C@@H](O)[C@H](O)[C@@H]1O [Azide 1]
1

Data provenance: paper PMC6797808
